# measurement_description: Plasma pharmacokinetics after a single oral dose in rats
# Assay type: in vivo, Sprague-Dawley rats
# test_parameters: male, Sprague-Dawley, plasma, po; rat, p.o. 100 mg/kg BW, n = 5; read-out: tmax (converted)
Where a SMILES comes first, the peptide text is derived from it.
assay_metric: tmax (min)
Return type: number; implicit unit min.

Problem: For the compound shown here, CSCC[C@H](NC(=O)[C@H](Cc1ccc(O)cc1)NC(=O)CNC(=O)[C@@H](N)CC(=O)O)C(=O)N1CCC[C@H]1C(=O)O [Asp-Gly-Tyr-Met-Pro] (H-DGYMP-OH) , give the reported tmax.
Result: 15
